Organism: Rattus norvegicus
protocol_description: Compound was tested for agonist activity in rat isolated uterus assay
Format: functional
Peptide text beside a SMILES is read from it.

[
  {
    "compound": "CC[C@H](C)[C@H](NC(=O)[C@H](Cc1ccc(OC)cc1)NC(=O)[C@@H](NC(=O)[C@H](CCCN=C(N)N)NC(=O)CNC)C(C)C)C(=O)N[C@@H](Cc1c[nH]cn1)C(=O)N1CCC[C@H]1C(=O)N[C@@H](Cc1c[nH]c2ccccc12)C(=O)O",
    "Activity": "<0.1%"
  },
  {
    "compound": "CC[C@H](C)[C@H](NC(=O)[C@@H]1CCCN1C(=O)[C@H](Cc1c[nH]cn1)NC(=O)[C@@H](NC(=O)[C@H](Cc1c[nH]c2ccccc12)NC(=O)[C@@H](NC(=O)[C@@H](N)CCCN=C(N)N)C(C)C)[C@@H](C)CC)C(=O)O (H-RVWIHPI-OH)",
    "Activity": "<0.1%"
  }
]

---

Species: Rattus norvegicus
protocol_description: Compound was tested for agonist activity in rat isolated uterus assay
Type: functional
Recorded Activity for the following compounds

[
  {
    "compound_string": "CC[C@H](C)[C@H](NC(=O)[C@H](Cc1ccc(O)cc1)NC(=O)[C@@H](NC(=O)[C@@H](N)CCCN=C(N)N)C(C)C)C(=O)N[C@@H](Cc1c[nH]cn1)C(=O)N1CCC[C@H]1C(=O)N[C@@H](Cc1c[nH]c2ccccc12)C(=O)O",
    "Activity": "<0.1%"
  },
  {
    "compound_string": "CC[C@H](C)[C@H](NC(=O)[C@H](Cc1ccc(O)cc1)NC(=O)[C@@H](NC(=O)[C@H](CCCN=C(N)N)NC(=O)CNC)C(C)C)C(=O)N[C@@H](Cc1c[nH]cn1)C(=O)N1CCC[C@H]1C(=O)N[C@@H](Cc1c[nH]c2ccccc12)C(=O)O",
    "Activity": "<0.1%"
  }
]

// data source = ChEMBL document CHEMBL1123016
